Assay: ASC/caspase-1 reporter retest in S. cerevisiae at one dose, specificity check for NALP1 project (AID 488857)
Conditions: S. cerevisiae ASC/Caspase-1, beta-galactosidase luminescence, 24 h; at 10 µM; active compounds read high
Screen size: about 1,400 compounds; about 560 (40%) were called active. The set was probably picked from earlier hits. The list shows a part of the results.
Each entry below carries its reported inhibition.

Below, each entry is followed by its recorded inhibition result.
Short answer for O=C(/C=C/c1ccc(F)cc1)NCCc1ccc2c(c1)OCCO2 : inhibition was 61.6% (active)

The measured inhibition associated with CC(C)(CN1CCN(Cc2ccccc2)CC1)NS(=O)(=O)c1ccc(Cl)cc1 reads 41.8% (inactive)

COc1cc(/C=C2/CCc3ccccc3C2=O)cc(OC)c1OC yielded inhibition of 69.8% (active)

In plain terms, COc1cc(/C=C(\NC(C)=O)C(=O)Nc2cccc(O)c2)ccc1OC(C)=O has a documented inhibition of 42% (inactive)

Record summary for COc1ccc(/C=C2\COc3ccccc3C2=O)cc1OC : reported inhibition = 81.6% (active)

Query C/C(=N\N1CCN(c2ccc(Cl)cc2)CC1)c1ccco1 yields inhibition of 36.9% (inactive)

Per the record, COc1cc(C)ccc1OCCOCCOc1ccc([N+](=O)[O-])cc1 has inhibition of 65.2% (active)

Measured inhibition of COc1ccccc1N1C(=O)C2CCC(c3ccccc3)CC2C1=O (stereo not drawn) : 27.9% (inactive)

Reported inhibition ( COc1ccc(/C=C/C(=O)Nc2ccc3c(c2)CCC3)cc1OC ) = 86.2% (active)

In plain terms, CC1CCc2nc3sc4c(c3c(N)c2C1)CCCC4 (stereo not drawn) has a documented inhibition of 93.2% (active)

Others:
Input COc1ccc2c(c1)CC/C(=C/c1ccco1)C2=O . Output inhibition: 68.5% (active)

Looking up Cn1cccc1/C=N/N1CCN(Cc2ccc(Cl)cc2)CC1 , I found its inhibition recorded as 51.9% (active)

Lab book: inhibition of CCN(CC)S(=O)(=O)c1ccc2oc(C(=O)NC3CCCc4ccccc43)c(C)c2c1 (stereo not drawn) noted as 23.3% (inactive)

inhibition measured on CCOC(=O)c1nnc(-c2ccc(C)cc2)nc1Sc1ccc(Cl)cc1 = 29.1% (inactive)

Summary for this compound, O=C(c1ccc(F)cc1)c1cn(Cc2ccc(F)cc2)c2cc3c(cc2c1=O)OCCO3 : inhibition is 44.1% (inactive)

COc1ccc(CC2(C)OC(c3ccc(C)cc3)=NN2C(C)=O)cc1 (stereo not drawn) yielded inhibition of 59% (active)

So, N#Cc1ccc(Oc2nc(Nc3ccc(F)cc3)nc(N3CCCC3)n2)cc1 ? Its inhibition was 37.5% (inactive)

Summary for this compound, Cc1ccc(CN2CCN(/N=C/c3cccs3)CC2)cc1 : inhibition is 28.2% (inactive)

According to the records, this compound COc1ccc(N(C)C2=NS(=O)(=O)c3ccccc32)cc1 displays inhibition of 29.7% (inactive)

COC(=O)C1=C(C)NC(C)=C(C(=O)OC)C1c1ccc(OC(=O)c2oc3ccccc3c2C)c(OC)c1 yielded inhibition of 25.6% (inactive)

# inhibition of O=C1/C(=C/c2ccccc2)CCCc2ccccc21 = 72.1% (active)

Reported inhibition ( O=C(O)c1ccc2c(c1)N(Cc1cccc(F)c1)C(=O)CS2 ) = 19.6% (inactive)

Kindly note the recorded inhibition for O=C1/C(=C/c2ccco2)Cc2ccccc21 , which is 48.4% (inactive)
